# Tested on: NCI-H322M
# ASSAY_COMMENT: relative viability (nuclei count vs DMSO), 5 days (fraction); higher = more cells survive
# CONDITION_SUMMARY: first compound 0.8 µM
Listed here are compounds together with their documented relative viability.

COMPOUND	relative viability
C=C1C(=O)O[C@@H](CCCCCCCC)[C@@H]1C(=O)O [C-75] + Nc1ncn([C@H]2C[C@H](O)[C@@H](CO)O2)c(=O)n1 [Decitabine] (partner 2 µM)	0.604
C=C1C(=O)O[C@@H](CCCCCCCC)[C@@H]1C(=O)O [C-75] + CC1(C)CCC(c2ccc(Cl)cc2)=C(CN2CCN(c3ccc(C(=O)NS(=O)(=O)c4ccc(N[C@H](CCN5CCOCC5)CSc5ccccc5)c(S(=O)(=O)C(F)(F)F)c4)cc3)CC2)C1 [Navitoclax] (partner 0.5 µM)	1.28
C=C1C(=O)O[C@@H](CCCCCCCC)[C@@H]1C(=O)O [C-75] + NC(=O)Nc1cc(-c2cccc(F)c2)sc1C(=O)N[C@H]1CCCNC1 [AZD7762] (partner 0.2 µM)	0.552
C=C1C(=O)O[C@@H](CCCCCCCC)[C@@H]1C(=O)O [C-75] + O=C(CCCCCCC(=O)Nc1ccccc1)NO [Vorinostat] (partner 1 µM)	0.851
C=C1C(=O)O[C@@H](CCCCCCCC)[C@@H]1C(=O)O [C-75] + C[C@]1(O)C[C@@H](c2nc(-c3ccc4ccc(-c5ccccc5)nc4c3)c3c(N)nccn32)C1 [Linsitinib] (partner 1 µM)	0.999
C=C1C(=O)O[C@@H](CCCCCCCC)[C@@H]1C(=O)O [C-75] + Cc1nc(NC(=O)N2CCC[C@H]2C(N)=O)sc1-c1ccnc(C(C)(C)C(F)(F)F)c1 [Alpelisib] (partner 2 µM)	0.821
C=C1C(=O)O[C@@H](CCCCCCCC)[C@@H]1C(=O)O [C-75] + CC(C)C[C@H](NC(=O)[C@H](Cc1ccccc1)NC(=O)c1cnccn1)B(O)O [Bortezomib] (partner 0.002 µM)	1.21

---

# Tested on: NCI-H650
# ASSAY_COMMENT: relative viability (nuclei count vs DMSO), 5 days (fraction); higher = more cells survive
# CONDITION_SUMMARY: first compound 0.04 µM
hey, just use Met if measured relative viability is less than 0.5, otherwise Not met

COMPOUND	CATEGORY
O=C(O)c1ccc(-c2c[nH]c3ncc(-c4ccccc4)cc23)cc1C1CCCC1 + C[C@@H](Oc1cc(-c2cnn(C3CCNCC3)c2)cnc1N)c1c(Cl)ccc(F)c1Cl [Crizotinib] (partner 1 µM)	Not met
O=C(O)c1ccc(-c2c[nH]c3ncc(-c4ccccc4)cc23)cc1C1CCCC1 + CC(=O)c1c(C)c2cnc(Nc3ccc(N4CCNCC4)cn3)nc2n(C2CCCC2)c1=O [Palbociclib] (partner 0.5 µM)	Met
O=C(O)c1ccc(-c2c[nH]c3ncc(-c4ccccc4)cc23)cc1C1CCCC1 + O=C(c1cc(Cc2n[nH]c(=O)c3ccccc23)ccc1F)N1CCN(C(=O)C2CC2)CC1 [Olaparib] (partner 8 µM)	Met
O=C(O)c1ccc(-c2c[nH]c3ncc(-c4ccccc4)cc23)cc1C1CCCC1 + NC(=O)Nc1cc(-c2cccc(F)c2)sc1C(=O)N[C@H]1CCCNC1 [AZD7762] (partner 0.2 µM)	Not met
O=C(O)c1ccc(-c2c[nH]c3ncc(-c4ccccc4)cc23)cc1C1CCCC1 + Cc1nc(Nc2ncc(C(=O)Nc3c(C)cccc3Cl)s2)cc(N2CCN(CCO)CC2)n1 [Dasatinib] (partner 0.075 µM)	Met
O=C(O)c1ccc(-c2c[nH]c3ncc(-c4ccccc4)cc23)cc1C1CCCC1 + O=C(CCCCCCC(=O)Nc1ccccc1)NO [Vorinostat] (partner 1 µM)	Met
O=C(O)c1ccc(-c2c[nH]c3ncc(-c4ccccc4)cc23)cc1C1CCCC1 + COc1cc2c(Oc3ccc(NC(=O)C4(C(=O)Nc5ccc(F)cc5)CC4)cc3F)ccnc2cc1OCCCN1CCOCC1 [Foretinib] (partner 0.25 µM)	Not met

---

Listed here are compounds together with their documented relative viability.
# Test system: EKVX
# ASSAY_COMMENT: relative viability (nuclei count vs DMSO), 5 days (fraction); higher = more cells survive
# CONDITION_SUMMARY: first compound 0.05 µM

COMPOUND	relative viability
CC1(C)CCC(c2ccc(Cl)cc2)=C(CN2CCN(c3ccc(C(=O)NS(=O)(=O)c4ccc(N[C@H](CCN5CCOCC5)CSc5ccccc5)c(S(=O)(=O)C(F)(F)F)c4)cc3)CC2)C1 [Navitoclax] + CCNC(=O)c1noc(-c2cc(C(C)C)c(O)cc2O)c1-c1ccc(CN2CCOCC2)cc1 [Luminespib] (partner 0.01 µM)	0.663
CC1(C)CCC(c2ccc(Cl)cc2)=C(CN2CCN(c3ccc(C(=O)NS(=O)(=O)c4ccc(N[C@H](CCN5CCOCC5)CSc5ccccc5)c(S(=O)(=O)C(F)(F)F)c4)cc3)CC2)C1 [Navitoclax] + Nc1nc2[nH]cc(CCc3ccc(C(=O)N[C@@H](CCC(=O)O)C(=O)O)cc3)c2c(=O)[nH]1 [Pemetrexed] (partner 0.2 µM)	0.4
CC1(C)CCC(c2ccc(Cl)cc2)=C(CN2CCN(c3ccc(C(=O)NS(=O)(=O)c4ccc(N[C@H](CCN5CCOCC5)CSc5ccccc5)c(S(=O)(=O)C(F)(F)F)c4)cc3)CC2)C1 [Navitoclax] + O=C(c1cc(Cc2n[nH]c(=O)c3ccccc23)ccc1F)N1CCN(C(=O)C2CC2)CC1 [Olaparib] (partner 8 µM)	0.784
CC1(C)CCC(c2ccc(Cl)cc2)=C(CN2CCN(c3ccc(C(=O)NS(=O)(=O)c4ccc(N[C@H](CCN5CCOCC5)CSc5ccccc5)c(S(=O)(=O)C(F)(F)F)c4)cc3)CC2)C1 [Navitoclax] + COc1cc2c(Oc3ccc(NC(=O)C4(C(=O)Nc5ccc(F)cc5)CC4)cc3F)ccnc2cc1OCCCN1CCOCC1 [Foretinib] (partner 0.25 µM)	0.544
CC1(C)CCC(c2ccc(Cl)cc2)=C(CN2CCN(c3ccc(C(=O)NS(=O)(=O)c4ccc(N[C@H](CCN5CCOCC5)CSc5ccccc5)c(S(=O)(=O)C(F)(F)F)c4)cc3)CC2)C1 [Navitoclax] + N=C(N)NC(=N)NCCc1ccccc1 [Phenformin] (partner 250 µM)	0.226
CC1(C)CCC(c2ccc(Cl)cc2)=C(CN2CCN(c3ccc(C(=O)NS(=O)(=O)c4ccc(N[C@H](CCN5CCOCC5)CSc5ccccc5)c(S(=O)(=O)C(F)(F)F)c4)cc3)CC2)C1 [Navitoclax] + NC(=O)Nc1cc(-c2cccc(F)c2)sc1C(=O)N[C@H]1CCCNC1 [AZD7762] (partner 0.2 µM)	0.769
CC1(C)CCC(c2ccc(Cl)cc2)=C(CN2CCN(c3ccc(C(=O)NS(=O)(=O)c4ccc(N[C@H](CCN5CCOCC5)CSc5ccccc5)c(S(=O)(=O)C(F)(F)F)c4)cc3)CC2)C1 [Navitoclax] + Nc1ncn([C@H]2C[C@H](O)[C@@H](CO)O2)c(=O)n1 [Decitabine] (partner 2 µM)	0.361
CC1(C)CCC(c2ccc(Cl)cc2)=C(CN2CCN(c3ccc(C(=O)NS(=O)(=O)c4ccc(N[C@H](CCN5CCOCC5)CSc5ccccc5)c(S(=O)(=O)C(F)(F)F)c4)cc3)CC2)C1 [Navitoclax] + C[C@]1(O)C[C@@H](c2nc(-c3ccc4ccc(-c5ccccc5)nc4c3)c3c(N)nccn32)C1 [Linsitinib] (partner 1 µM)	0.954

---

# Test system: LK-2
# ASSAY_COMMENT: relative viability (nuclei count vs DMSO), 5 days (fraction); higher = more cells survive
# CONDITION_SUMMARY: first compound 0.01581 µM
hey, just use met if measured relative viability is less than 0.3, otherwise not met

MOLECULE	CATEGORY
CC1(C)CCC(c2ccc(Cl)cc2)=C(CN2CCN(c3ccc(C(=O)NS(=O)(=O)c4ccc(N[C@H](CCN5CCOCC5)CSc5ccccc5)c(S(=O)(=O)C(F)(F)F)c4)cc3)CC2)C1 [Navitoclax] + Cc1nc(NC(=O)N2CCC[C@H]2C(N)=O)sc1-c1ccnc(C(C)(C)C(F)(F)F)c1 [Alpelisib] (partner 2 µM)	not met
CC1(C)CCC(c2ccc(Cl)cc2)=C(CN2CCN(c3ccc(C(=O)NS(=O)(=O)c4ccc(N[C@H](CCN5CCOCC5)CSc5ccccc5)c(S(=O)(=O)C(F)(F)F)c4)cc3)CC2)C1 [Navitoclax] + C[C@@H](Oc1cc(-c2cnn(C3CCNCC3)c2)cnc1N)c1c(Cl)ccc(F)c1Cl [Crizotinib] (partner 1 µM)	met
CC1(C)CCC(c2ccc(Cl)cc2)=C(CN2CCN(c3ccc(C(=O)NS(=O)(=O)c4ccc(N[C@H](CCN5CCOCC5)CSc5ccccc5)c(S(=O)(=O)C(F)(F)F)c4)cc3)CC2)C1 [Navitoclax] + N=C(N)NC(=N)NCCc1ccccc1 [Phenformin] (partner 250 µM)	not met
CC1(C)CCC(c2ccc(Cl)cc2)=C(CN2CCN(c3ccc(C(=O)NS(=O)(=O)c4ccc(N[C@H](CCN5CCOCC5)CSc5ccccc5)c(S(=O)(=O)C(F)(F)F)c4)cc3)CC2)C1 [Navitoclax] + Nc1ncn([C@H]2C[C@H](O)[C@@H](CO)O2)c(=O)n1 [Decitabine] (partner 2 µM)	met
CC1(C)CCC(c2ccc(Cl)cc2)=C(CN2CCN(c3ccc(C(=O)NS(=O)(=O)c4ccc(N[C@H](CCN5CCOCC5)CSc5ccccc5)c(S(=O)(=O)C(F)(F)F)c4)cc3)CC2)C1 [Navitoclax] + NC(=O)Nc1cc(-c2cccc(F)c2)sc1C(=O)N[C@H]1CCCNC1 [AZD7762] (partner 0.2 µM)	not met
CC1(C)CCC(c2ccc(Cl)cc2)=C(CN2CCN(c3ccc(C(=O)NS(=O)(=O)c4ccc(N[C@H](CCN5CCOCC5)CSc5ccccc5)c(S(=O)(=O)C(F)(F)F)c4)cc3)CC2)C1 [Navitoclax] + O=C(CCCCCCC(=O)Nc1ccccc1)NO [Vorinostat] (partner 1 µM)	not met
CC1(C)CCC(c2ccc(Cl)cc2)=C(CN2CCN(c3ccc(C(=O)NS(=O)(=O)c4ccc(N[C@H](CCN5CCOCC5)CSc5ccccc5)c(S(=O)(=O)C(F)(F)F)c4)cc3)CC2)C1 [Navitoclax] + O=C(c1cc(Cc2n[nH]c(=O)c3ccccc23)ccc1F)N1CCN(C(=O)C2CC2)CC1 [Olaparib] (partner 8 µM)	not met
CC1(C)CCC(c2ccc(Cl)cc2)=C(CN2CCN(c3ccc(C(=O)NS(=O)(=O)c4ccc(N[C@H](CCN5CCOCC5)CSc5ccccc5)c(S(=O)(=O)C(F)(F)F)c4)cc3)CC2)C1 [Navitoclax] + Cc1nc(Nc2ncc(C(=O)Nc3c(C)cccc3Cl)s2)cc(N2CCN(CCO)CC2)n1 [Dasatinib] (partner 0.075 µM)	not met

The origin of these recorded values is the supplement of paper PMC10307832.
